System: LXRa homodimer (NR concentration 270 nM)
experiment: PBM binding z-score (relative to random genomic background probes); higher = stronger binding; sequences stand for … in GC…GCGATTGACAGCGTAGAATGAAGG
Assign classes using reported PBM binding z-score values and the ranges I = under 0.002, II = from 0.002 up to 0.5, III = 0.5 and over, please.

[[record]]
sequence_entry = "CATACAGGGTCAGCTAGGCCACAGTAGGGACGGC"
group = "I"

[[record]]
sequence_entry = "GATTCAGGGTCAAGGCCAGAGTACGCGTATTGAT"
group = "II"

[[record]]
sequence_entry = "TAGCCTAGGTCATGGACCAGTATACCACGCGAAC"
group = "II"

[[record]]
sequence_entry = "GCTTGTAGGTCAAGGTTAAGAAAGACTAAGCTAA"
group = "II"

[[record]]
sequence_entry = "TCTTGTAGATCAACAGGGGGTTAAGAAAGATCGA"
group = "II"

[[record]]
sequence_entry = "GCTGCTAGGTCAACTGATGGTCCGCTAAAGCTCG"
group = "I"

[[record]]
sequence_entry = "TCTATTAGTTGATCAGGGCAACCGAAACAGCGGA"
group = "II"

[[record]]
sequence_entry = "TCTATTAGTTGAAGGGCCACCGACGAGTCCGTTT"
group = "II"

[[record]]
sequence_entry = "ATCGAAAGGTCGACGAGGTGTGTATACACCGTTT"
group = "II"

[[record]]
sequence_entry = "CCTAGAAGGCCAGGGTCACTCAAGCATTTCGCTT"
group = "I"

[[record]]
sequence_entry = "CCTACTGGGCCACGAAAGGTCATAGATTCAGTGA"
group = "III"

[[record]]
sequence_entry = "CAATCTAGGTCACCGGAAGGTCAAAGTCCGCATG"
group = "III"

[[record]]
sequence_entry = "GCTAGTTGGTCAGTAAAAGGTCACTCACCGGTCG"
group = "III"

[[record]]
sequence_entry = "TAGCCTAGGGCATGCGGGCCAGTATAGTGTCGGC"
group = "I"

[[record]]
sequence_entry = "AATACAGAGTCATCGTAGGCCAGAGTACGCACAG"
group = "I"

[[record]]
sequence_entry = "CCTGCTAGGTCATGATCAGCTAATCTACAGTATG"
group = "II"

[[record]]
sequence_entry = "ATCTCTAGCTAACAAGTTCAGTGAAAGAGAGGAC"
group = "III"

[[record]]
sequence_entry = "TCTAGCAGGCCAGAGGGTCACCCAAGAGGTACGG"
group = "I"

[[record]]
sequence_entry = "GCCCGGAGGACAAGGTCAGAGCTTTGTCCGTAGA"
group = "I"

[[record]]
sequence_entry = "AGTCAAAGTTCATCTAGATAACGTAAGATATGCT"
group = "III"

[[record]]
sequence_entry = "TCATATAGGTAATACAGGTGAAAGTTGGCATCTA"
group = "III"

[[record]]
sequence_entry = "CCTACTGGGCTATCAGGTCATTGATATCAACGTT"
group = "III"

[[record]]
sequence_entry = "AGAATGAGGTTGTACGTAGATCAGGGAAGAAAGT"
group = "II"

[[record]]
sequence_entry = "AGAATGAGGTTATACGTAGACCAGGGAAGAAAGT"
group = "I"

[[record]]
sequence_entry = "CGAACTAGGTCATAGACAGGACAGTGAATAGTAA"
group = "II"

[[record]]
sequence_entry = "CCTAGTTGGTCAGAAGGTCACACACCGGATATGA"
group = "III"

[[record]]
sequence_entry = "CGTCCAAGGTCAAAGGTGAGTGAAGAGATGACGG"
group = "III"

[[record]]
sequence_entry = "CAAACTAGTTCAAAGGTCAAAGTCGAGCCAACCA"
group = "III"

[[record]]
sequence_entry = "AGCGAAAGGTCGTGAGGTGAGTATACAGAAAGGC"
group = "I"

[[record]]
sequence_entry = "GGAACGAGGGCAAGTGGATAGCAGAGTTTGATGG"
group = "I"

[[record]]
sequence_entry = "CCGACTGGGACAGAAAGGTTACCATACCATCCGG"
group = "I"

[[record]]
sequence_entry = "TCTTGTAGATCAAATGTTAAGAAAGCCGAAGCCT"
group = "I"

[[record]]
sequence_entry = "CCTGCGAGGTCAATGGTCAGCTAAAGCAGCTCGC"
group = "III"

[[record]]
sequence_entry = "CCTATTAGTTGACCATAACGGCAACCGAAGCTCG"
group = "III"


The measured values listed here are drawn from the supplement of paper PMC6555819.
